Each entry below carries its recorded Ratio IC50.
experiment: Selectivity ratio of IC50 for PKA to IC50 for Akt1
Measure Name: Ratio IC50

Compound	Limit Sign	Quantitative Result
Cc1ccc(S(=O)(=O)NC[C@@H](O)CN2CCC[C@@]3(CCN(c4ncnc(N)c4C4CC4)C3)C2)c(C)c1	>	63
Cc1cccc(C)c1S(=O)(=O)N1CCC[C@H]1[C@@H](O)CN1CCC[C@@]2(CCN(c3ncnc(N)c3C3CC3)C2)C1	=	430
CCOCCN(C[C@@H](O)CN1CCCC2(CCN(c3ncnc(N)c3C3CC3)C2)C1)S(=O)(=O)c1c(C)cccc1C (mixture of isomers)	=	180
Cc1cccc(C)c1S(=O)(=O)N1CCC[C@@H]1[C@@H](O)CN1CCC[C@@]2(CCN(c3ncnc(N)c3C3CC3)C2)C1	=	250
Cc1ccncc1S(=O)(=O)NC[C@@H](O)CN1CCC[C@@]2(CCN(c3ncnc(N)c3C3CC3)C2)C1	>	9
Nc1ncnc(N2CC[C@@]3(CCCN(C[C@H](O)CNS(=O)(=O)c4ccccc4F)C3)C2)c1C1CC1	>	120
Cc1cccc(C)c1S(=O)(=O)NC[C@@H](O)CN1CCC[C@@]2(CCN(c3ncnc(N)c3C3CC3)C2)C1	=	850
Cc1ccccc1S(=O)(=O)NC[C@@H](O)CN1CCC[C@@]2(CCN(c3ncnc(N)c3C3CC3)C2)C1	=	560
Cc1cc(F)ccc1S(=O)(=O)NC[C@@H](O)CN1CCC[C@@]2(CCN(c3ncnc(N)c3C3CC3)C2)C1	=	970
Nc1ncnc(N2CC[C@@]3(CCCN(C[C@H](O)CNS(=O)(=O)c4ccccc4Cl)C3)C2)c1C1CC1	=	920
CCOCCN(C[C@@H](O)CN1CCCC2(CCN(c3ncnc4[nH]cc(C)c34)CC2)C1)S(=O)(=O)c1c(C)cccc1C	=	5
CCOCCN(C[C@@H](O)CN1CCCC2(CCN(c3ncnc4[nH]nc(C)c34)C2)C1)S(=O)(=O)c1c(C)cccc1C (some centres not stated)	=	27
Cc1noc(C)c1S(=O)(=O)NC[C@@H](O)CN1CCC[C@@]2(CCN(c3ncnc(N)c3C3CC3)C2)C1	=	630
CCOCCN(C[C@@H](O)CN1CCCC2(CCN(c3ncncc3C3CC3)C2)C1)S(=O)(=O)c1c(C)cccc1C (some centres not stated)	=	280
Cc1cccc(C)c1S(=O)(=O)N1CCC[C@H]1[C@H](O)CN1CCC[C@@]2(CCN(c3ncnc(N)c3C3CC3)C2)C1	>	40
CCOCCN(C[C@@H](O)CN1CCCC2(CCN(c3ncnc4[nH]cc(C)c34)C2)C1)S(=O)(=O)c1c(C)cccc1C (some centres not stated)	=	28
Nc1ncnc(N2CC[C@@]3(CCCN(C[C@H](O)CNS(=O)(=O)c4ccccc4Br)C3)C2)c1C1CC1	=	550
